Listed compounds paired with reported activity at 1 µM
Target: Flag-tagged MAGL enzyme (Homo sapiens)
Assay: Reversible MAGL inhibition, washout of immobilized Flag-tagged MAGL enzyme (Example C)
Assay type: biochemical
Settings: 0.5 h; relative to control (no inhibitor before washout); immediately following a 30 minute washout; pre-washout 1 μM; read-out: % MAGL activity returning after washout

Solved entries:
>  <Compound>
O=C(c1cc(O)ccc1F)N1CC2(CC(n3nc(-c4ccc[nH]c4=O)cc3C(F)(F)F)C2)C1

>  <activity at 1 µM>
> 50%

$$$$
>  <Compound>
COc1ncccc1-c1cc(C(F)(F)F)n(C2CC3(C2)CN(C(=O)c2cc(O)ccc2F)C3)n1

>  <activity at 1 µM>
> 50%

$$$$

Task item: For the compound `O=C(c1cc(O)ccc1F)N1CC2(CC(n3nc(-c4ccc(=O)[nH]c4)cc3C(F)(F)F)C2)C1` , give its measured activity at 1 µM value.
Reply: > 50%

Task item: For the compound O=C(Oc1ccc([N+](=O)[O-])cc1)N1CCC(C(O)(c2ccc3c(c2)OCO3)c2ccc3c(c2)OCO3)CC1 [JZL-184, reference compound] , give its measured activity at 1 µM value.
Reply: < 1%

Task item: For the compound `O=C(c1cc(O)ccc1F)N1CC2(CC(n3nc(C(F)(F)F)cc3-c3ccccn3)C2)C1` , give its measured activity at 1 µM value.
Reply: > 50%

Task item: For the compound `COc1ccc(-c2cc(C(F)(F)F)n(C3CC4(C3)CN(C(=O)c3cc(O)ccc3F)C4)n2)cn1` , give its measured activity at 1 µM value.
Reply: > 50%

* * *

Target: human MAGL (Homo sapiens, UniProt Q99685)
Construct: recombinant MAGL enzyme (aa 2-303 RBC, internal preparation)
Test: MAGL inhibition potency, 4-nitrophenyl acetate (4NPA) hydrolysis, absorbance 405 nm (Example A)
Assay type: biochemical
Conditions: Method 12: Reaction Biology MAGL enzyme, 15 nM; 4NPA substrate; read-out: MAGL Potency (Detection Method)
Parameter: IC50

Solved entries:
>  <Compound Smiles>
O=C(c1cc(O)ccc1F)N1CC2(CC(n3ncc(C(F)(F)F)c3-c3cccnc3F)C2)C1

>  <Parameter>
IC50

>  <Reported Result>
150 to 500 nM

$$$$
>  <Compound Smiles>
COc1ccc(-c2cc(C(F)(F)F)n(C3CC4(C3)CN(C(=O)c3cc(O)ccc3F)C4)n2)cn1

>  <Parameter>
IC50

>  <Reported Result>
< 50 nM

$$$$
>  <Compound Smiles>
O=C(c1cc(O)ccc1F)N1CC2(CC(n3cc(C(F)(F)F)c(-c4ccc[nH]c4=O)n3)C2)C1

>  <Parameter>
IC50

>  <Reported Result>
50 to 150 nM

$$$$

Would you kindly look at the next entry?
Task item: For the molecule `O=C(c1cc(O)ccc1F)N1CC2(CC(n3ncc(C(F)(F)F)c3-c3cccnc3)C2)C1` , give its measured IC50 value.
Reply: 150 to 500 nM

* * *

Target: human MAGL (Homo sapiens)
Construct: recombinant MAGL enzyme (aa 2-303 RBC, internal preparation)
Sequence (Q99685 2-303): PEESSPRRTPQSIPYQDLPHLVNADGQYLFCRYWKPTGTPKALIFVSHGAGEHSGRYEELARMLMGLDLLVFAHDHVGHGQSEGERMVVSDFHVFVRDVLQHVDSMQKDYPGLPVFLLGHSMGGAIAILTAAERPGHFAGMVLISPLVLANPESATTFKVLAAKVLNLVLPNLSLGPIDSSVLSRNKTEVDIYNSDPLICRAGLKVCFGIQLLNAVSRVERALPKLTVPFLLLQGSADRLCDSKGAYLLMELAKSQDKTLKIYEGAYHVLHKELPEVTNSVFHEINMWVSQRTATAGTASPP
Assay: MAGL inhibition potency, 4-nitrophenyl acetate (4NPA) hydrolysis, absorbance 405 nm (Example A)
Type: biochemical
Settings: Method 12: Reaction Biology MAGL enzyme, 15 nM; 4NPA substrate; read-out: MAGL Potency (Detection Method)
Listed compounds paired with reported IC50

>  <Compound Smiles>
COc1ncccc1-c1c(C(F)(F)F)cnn1C1CC2(C1)CN(C(=O)c1cc(O)ccc1F)C2

>  <Reported Result>
< 50 nM

$$$$
>  <Compound Smiles>
COc1ncccc1-c1cc(C(F)(F)F)n(C2CC3(C2)CN(C(=O)c2cc(O)ccc2F)C3)n1

>  <Reported Result>
< 50 nM

$$$$
>  <Compound Smiles>
O=C(c1cc(O)ccc1F)N1CC2(CC(n3nc(-c4cccnc4)cc3C(F)(F)F)C2)C1

>  <Reported Result>
< 50 nM

$$$$
>  <Compound Smiles>
O=C(c1ccc(F)cc1OC1CC1)N1CC2(CC(N3C=C(c4ccccc4F)CC3=O)C2)C1

>  <Reported Result>
1000 to 5100 nM

$$$$
>  <Compound Smiles>
O=C(c1cc(O)ccc1F)N1CC2(CC(n3nc(C(F)(F)F)cc3-c3ccccn3)C2)C1

>  <Reported Result>
< 50 nM

$$$$

Task item: For the compound `COc1ccc(-c2cc(C(F)(F)F)nn2C2CC3(C2)CN(C(=O)c2cc(O)ccc2F)C3)cn1` , give its measured IC50 value.
Reply: 150 to 500 nM

Task item: For the compound `O=C(c1cc(O)ccc1F)N1CC2(CC(n3cc(C(F)(F)F)c(-c4cccnc4F)n3)C2)C1` , give its measured IC50 value.
Reply: < 50 nM

Task item: For the compound `COc1ncccc1-c1nn(C2CC3(C2)CN(C(=O)c2cc(O)ccc2F)C3)cc1C(F)(F)F` , give its measured IC50 value.
Reply: 150 to 500 nM

The reported numbers originate from patent US20260345568A1.
